Hey, just so you know, these numbers are from PubChem BioAssay.

# method: anti-His antibody binders, primary screen, artefact control for SMM control protein annotation, biochemical, small-molecule microarray, 635 nm fluorescence (AID 1128);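 note: score merges feature fluorescence with signal-to-noise for each printed compound spot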
# reported conditions: anti-His Alexa647 antibody binding, higher = more signal
Classify by measured composite z-score: Y if it is equal to or exceeds 1, N if it is smaller.

molecule="CC(=O)OC[C@H]1O[C@H](CC=NOC(C)CN2CCCc3nc(C)c(C)cc32)C=C[C@@H]1OC(C)=O (stereo not given in full)" category_label=Y

-- ask Say whether COC(=O)[C@@H]1CC[C@H](C)[C@@H](c2ccc(Br)cc2)N1 shows composite z-score of 1 or more.
-- reply N

-- ask Say whether COCC#Cc1ccc([C@@H]2N[C@H](C(=O)O)CC[C@H]2C)cc1 shows composite z-score of 1 or more.
-- reply N

-- ask Say whether CO[C@H]1COC(=O)CCC[C@H](C)[C@@H](OC)COC(=O)CC=C[C@@H]1C shows composite z-score of 1 or more.
-- reply Y

-- ask Say whether CC(CCC(=O)OC[C@H]1O[C@H](C#Cc2ccccc2)C=C[C@@H]1Oc1ccc(C)cc1)=NOC(C)CN1CCCc2nc(C)c(C)cc21 (stereo not given in full) shows composite z-score of 1 or more.
-- reply Y
